B1: LINE1-full (parent)
chain: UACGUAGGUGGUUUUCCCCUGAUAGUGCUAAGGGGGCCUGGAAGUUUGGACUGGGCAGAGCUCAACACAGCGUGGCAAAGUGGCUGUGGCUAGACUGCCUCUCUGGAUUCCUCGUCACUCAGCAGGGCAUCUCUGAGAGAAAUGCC

- Variants of: B1
- method: self-cleavage, relative activity (ratio to wild type); higher = more cleavage; in vitro, sequencing; the parent is a self-cleaving ribozyme
Assignment: determine reported self-cleavage for the given variants.
# print the numeric value only

Sure, the documented self-cleavage for G11A A42G is 1.43

Sure, the documented self-cleavage for A2C U119C is 0.89

Sure, the documented self-cleavage for G34A U46C is 1.27

Sure, the documented self-cleavage for G21U A94G is 0.18

Sure, the documented self-cleavage for G86A U109G is 0.07

Sure, the documented self-cleavage for U13C U109A is 1.11

Sure, the documented self-cleavage for U26C G35U is 1.56

Sure, the documented self-cleavage for A77U U87A is 0.05

Sure, the documented self-cleavage for A59U A69U is 0.04

Sure, the documented self-cleavage for U20C U109C is 1.34

Sure, the documented self-cleavage for A42G G44A is 1.27

Sure, the documented self-cleavage for U13C A67U is 0.16

Sure, the documented self-cleavage for A78U U112A is 2.12

Sure, the documented self-cleavage for G35U G75C is 0.77

Sure, the documented self-cleavage for G93U U115C is 0.04

Sure, the documented self-cleavage for G11U C118U is 0.91

Sure, the documented self-cleavage for U1A U47G is 1.53

Sure, the documented self-cleavage for U1A U91C is 0.15

Sure, the documented self-cleavage for A77U U132G is 1.74

Sure, the documented self-cleavage for A22G G49A is 0.84

Sure, the documented self-cleavage for G21A U134A is 1.17

Sure, the documented self-cleavage for U1C A30G is 0.73

Sure, the documented self-cleavage for A79G G86U is 0.1

Sure, the documented self-cleavage for U119G A129G is 1.15

Sure, the documented self-cleavage for C3U C51G is 1.31

Sure, the documented self-cleavage for C118U U132C is 1.81

Sure, the documented self-cleavage for A42G U73C is 1.5

Sure, the documented self-cleavage for U1A A129C is 2.51

Sure, the documented self-cleavage for A121U A140G is 1.18

Sure, the documented self-cleavage for U47G is 1.14

Sure, the documented self-cleavage for C28A A57G is 1.53

Sure, the documented self-cleavage for U13C U47A is 1.02

Sure, the documented self-cleavage for U62C G88U is 0.04

Sure, the documented self-cleavage for A43G C123U is 1.21

Sure, the documented self-cleavage for U39G U132C is 2.44

Sure, the documented self-cleavage for G7U A69G is 0.94

Sure, the documented self-cleavage for A92U A129G is 0.69

Sure, the documented self-cleavage for G40U A78G is 0.81

Sure, the documented self-cleavage for G80U U132A is 2.3

Sure, the documented self-cleavage for U45C C113U is 1.15

Sure, the documented self-cleavage for U104C G144A is 2.03

Sure, the documented self-cleavage for U26C A107G is 1.33

Sure, the documented self-cleavage for C116U A117G is 1.61

Sure, the documented self-cleavage for G25A A64U is 0.4

Sure, the documented self-cleavage for C56U U134C is 0.23

Sure, the documented self-cleavage for U5C U91C is 0.48
